I'd appreciate it if you could supply IC50 values for the items below.
- target_under_test: human recombinant H-PGDS (Homo sapiens)
- Sequence (O60760 whole entry): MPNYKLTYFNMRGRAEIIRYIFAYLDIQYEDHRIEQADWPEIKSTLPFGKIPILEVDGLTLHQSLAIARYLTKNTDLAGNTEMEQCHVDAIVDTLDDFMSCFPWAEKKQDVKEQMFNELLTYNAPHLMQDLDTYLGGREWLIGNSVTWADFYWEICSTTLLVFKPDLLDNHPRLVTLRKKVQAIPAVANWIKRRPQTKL
- run_description: Fluorescence intensity h-PGDS TBA enzyme assay (PGH2 depletion, MDA/TBA fluorescence)
- Assay type: biochemical
- measurement_context: 1:175,000 human recombinant H-PGDS, 42 second reaction, 3-fold serial dilutions, highest concentration typically 1 μM
Counter-ions that a name gives are not always drawn.
Numbers only, in nM.

compound: CN1CCCCC1C(=O)N[C@H]1CC[C@@H](NC(=O)c2ccc(-c3cccc(F)c3)nc2)CC1 (relative stereo) [Example 217]
readout_unit: nM
IC50: 67.1
//
compound: CN(C)CC(=O)NC[C@H]1CCC[C@@H](NC(=O)c2ccc(-c3cccc(F)c3)nc2)C1 (relative stereo) [Example 253]
readout_unit: nM
IC50: 50.9
//
compound: O=C(N[C@H]1CC[C@H](CO)CC1)c1cnc(-c2cccc(F)c2)c(Cl)c1 [Example 114]
readout_unit: nM
IC50: 4.41
//
compound: CC(=O)NC(C)(C)[C@H]1CC[C@H](NC(=O)c2ccc(-c3cccc(F)c3)nc2)CC1 [Example 113P]
readout_unit: nM
IC50: 9.1

State recorded IC50 for all listed compounds.
1. CCN1CCN(C(=O)[C@@]2(C)CCC[C@@H](NC(=O)c3ccc(-c4cccc(F)c4)nc3)C2)CC1 (relative stereo) [Example 233]
2. NCCC(O)C1CCC(NC(=O)c2ccc(-c3cccc(F)c3)nc2)CC1 (stereo not drawn) [Example 154, hydrochloride]
3. CN(C)C(=O)[C@H]1CC[C@@H](NC(=O)c2ccc(-c3cccc(F)c3)nc2)C1 [Example 165]
4. O=C(NC1CCCCC1)c1ccc(-c2cccc(F)c2)nc1 [Example 18]
5. COCC(=O)N[C@@H]1CCC[C@H](NC(=O)c2ccc(-c3cccc(F)c3)nc2)C1 (relative stereo) [Example 203]
6. CC(C)(O)[C@H]1CC[C@@H](NC(=O)c2ccc(-c3cccc(F)c3)nc2)CC1 [Example 275]
7. O=C(N[C@H]1CC[C@@H](C(=O)N2CCC(CCO)CC2)C1)c1ccc(-c2cccc(F)c2)nc1 [Example 168]
8. O=CN[C@H]1CC[C@H](NC(=O)c2ccc(-c3cccc(F)c3)nc2)CC1 [Example 113O]

Output:
4.1
40.3
16.9
7.72
17.1
81.8
4.4
7.3

State recorded IC50 for all listed compounds.
1. O=C(N[C@H]1CC[C@@H](C(=O)N2CCOCC2)C1)c1ccc(-c2cccc(F)c2)nc1 [Example 170]
2. C[C@H](O)C(=O)N[C@@H]1CCC[C@H](NC(=O)c2ccc(-c3cccc(F)c3)nc2)C1 [Example 206]
3. C[C@H](N)C(=O)N[C@H]1CC[C@H](NC(=O)c2ccc(-c3cccc(F)c3)nc2)CC1 [Example 113R]

Output:
[4.3, 13.5, 13.8]
